procedureSummary: A2780 ovarian cancer cell cytotoxicity, dose response, cytotoxicity control, plate reader, dry powder samples (AID 743046);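 further: 0% = neutral control wells and -100% = cytotoxic reference compound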
conditionDescription: series mostly up to 35 µM
Entries with a potency or affinity are not part of this list. Active and inactive are the calls of the source. How the calls were made is not given here.
experimentalReadout: activity change, negative = cytotoxicity

smilesEntry	observedResult
C[C@@H]1CCCCO[C@@H](CN(C)S(=O)(=O)c2ccc(F)cc2)[C@H](C)CN([C@H](C)CO)C(=O)c2cc(NS(=O)(=O)c3ccc(Cl)cc3)ccc2O1	inactive
COc1ccc(S(=O)(=O)N(C)C[C@H]2Oc3ccc(NC(=O)Nc4ccc(C(F)(F)F)cc4)cc3CC(=O)N([C@H](C)CO)C[C@@H]2C)cc1	inactive
C[C@H]1CCCCO[C@H](CN(C)Cc2ccc(C(F)(F)F)cc2)[C@@H](C)CN([C@@H](C)CO)C(=O)c2cc(NC(=O)Cc3ccccc3)ccc2O1	inactive

----------
system: NADPH oxidase 4 (Homo sapiens)
procedureSummary: NOX4-dependent H2O2 signal modulators, primary screen, NOX inhibitor project, cell-based, HEK293-NOX4, tetracycline-induced, Amplex Red fluorescence (AID 1160)
conditionDescription: 45 min, higher = more signal, called active from +8 up or from −8 down
Respond with yes (1) for z-score values of 1 and above, no (0) for values below.

The following compounds have reported results that may help.
compound	label
C=CCOC(=O)[C@H]1[C@@H]2C(=O)O[C@@H](c3ccccc3)[C@@H](c3ccccc3)N2[C@@H](c2ccc(OCCOC(=O)[C@H]3C[C@H]4C(=O)N5CCC[C@H]5C(=O)N4[C@H]3c3cccc(OCCO)c3)cc2)[C@]12C(=O)Nc1ccccc12	yes (1)
C=C1C=C(Br)C2(OCCCO2)[C@H]2OC12 (some centres not stated)	no (0)
O=C1c2ccccc2[C@](Cc2ccccc2I)(C(=O)O)[C@H](c2ccc(CO)cc2)N1Cc1ccccc1Cl	no (0)
C=CCN1C(=O)[C@@]2(O[C@@H](CCn3cc(CCO)nn3)[C@H]([Si](C)(C)c3ccc(OC)cc3)[C@H]2C)c2cc(N3C(=O)c4cccc5cccc3c45)ccc21	yes (1)
C=C(COC)/C(=C/C[C@H](OC(C)=O)c1ccc(CO)o1)c1cnc2ccccc2c1	no (0)
C=C(/C(=C/C[C@H](OC(C)=O)c1cccc(OCCO)c1)c1cc(C(=O)OC)ccc1OC)C(C)C	yes (1)

In plain terms: is recorded z-score at least 1 for CC(C)(C)OC(=O)CC[C@@]1(C(=O)NCc2ccccc2)N=C(c2ccc(OCCCO)cc2)O[C@@H]1c1ccccc1CN=[N+]=[N-] ?
no (0)

----------
procedureSummary: COS7 lysate on small-molecule microarray, probe aHis, 635 nm (AID 1123);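 further: z-score combines 667nm fluorescence intensity with signal-to-noise per printed compound spot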
conditionDescription: COS7 cell lysate, fluorescence, higher = more signal
experimentalReadout: composite z-score
Please reply with the number alone, leaving off any unit.

Recorded results for 3 compounds are shown here.
compound	experimentalReadout	observedResult
C#CCOc1ccc(C[C@H]2C(=O)O[C@H](Cc3ccccc3)[C@H](/C=C/C3CC3)N2CC#C)cc1	composite z-score	-0.104
C[C@@H](OCc1ccccc1)C1NC(=O)[C@@]23C(=O)N[C@@H](Cc4ccccc4)C2[C@H](C)[C@@]2(C)O[C@H]2C3/C=C/C/C=C\CNC(=O)[C@@H]2CCCN2C1=O (stereo not given in full)	composite z-score	-0.357
COCCCN1C(=O)[C@@]2(Cc3ccccc31)c1ccccc1C(=O)N(Cc1ccccc1Cl)[C@H]2c1ccc(CO)cc1	composite z-score	-0.0024

Look up and state reported composite z-score for C=CC[C@@]1(C(=O)NCc2ccccc2)N=C(c2ccc(OCCCO)cc2)O[C@@H]1c1ccccc1
2.56

Look up and state reported composite z-score for C=CC[C@]1(C(=O)N(C)C)N=C(c2ccc(OCCCO)cc2)O[C@H]1c1ccccc1CN=[N+]=[N-]
2.11

Look up and state reported composite z-score for CCCCCCC#C[Si](O[C@H](c1ccccc1)c1cn(Cc2ccccc2)nn1)(C(C)C)C(C)C
0.0604

Look up and state reported composite z-score for CC(C)C[C@@H]1NC(=O)[C@H]2C[C@@H](C(=O)NCCCC[N+](C)(C)C)[C@@H](c3cccc(OCCO)c3)N2C1=O
1.89

Look up and state reported composite z-score for COC(=O)C1=CC(c2ccc(CO)cc2)=CC(C2CC2)N(C)C=C1C(=O)OC (stereo not given)
1.73

Look up and state reported composite z-score for O=C(N1CCCCC1)[C@@]1(Cc2ccccc2)N=C(c2ccc(OCCCO)cc2)O[C@H]1c1ccccc1
3

Look up and state reported composite z-score for COc1ccc([Si](C)(C)[C@@H]2[C@@H](CC(=O)N3CCC[C@H]3CO)O[C@]3(C(=O)N(Cc4ccc(N5CCC5=O)cc4)c4ccccc43)[C@H]2C)cc1
1.05

----------
composite z-score by entry:
system: Torsin-1A-interacting protein 1 (Homo sapiens)
procedureSummary: LAP1 binders from COS7 cell lysate, primary screen, small-molecule microarray, 635/667 nm fluorescence (AID 1116)
conditionDescription: COS7-hLAP1 lysate binding, 635 nm fluorescence, higher = more signal

Recorded results for 2 compounds are shown here.
smilesEntry	composite z-score
CC(C)C[C@@H]1NC(=O)[C@H]2C[C@@H](C(=O)NCCCC[N+](C)(C)C)[C@@H](c3cccc(OCCO)c3)N2C1=O	1.19
Cc1ccc(S[C@]2(C(=O)NCC(C)C)CC(=O)N(C(C)C)[C@@H]2c2ccc(CO)cc2)cc1	0.623

Give measured composite z-score for COCCOC(=O)N1C(=O)[C@@]2(c3cc(C#CCNC(N)=O)ccc31)[C@H](C(=O)NC[C@H](O)c1ccccc1)[C@H]1C(=O)O[C@H](c3ccccc3)[C@H](c3ccccc3)N1[C@@H]2c1ccc(O)cc1 (Torsin-1A-interacting protein 1 (Homo sapiens)).
0.138

Give measured composite z-score for NCCCCCNC(=O)[C@H]1C[C@H]2C(=O)NCC(=O)N2[C@H]1c1ccc(O)cc1 (Torsin-1A-interacting protein 1 (Homo sapiens)).
0.712

Give measured composite z-score for COc1ccc([Si](C)(C)[C@H]2[C@H](CC(=O)N(CCO)Cc3ccccc3)O[C@@]3(C(=O)N(Cc4ccc(N5CCC5=O)cc4)c4ccccc43)[C@@H]2C)cc1 (Torsin-1A-interacting protein 1 (Homo sapiens)).
1.25

Give measured composite z-score for COC(=O)C(CC#Cc1ccc2c(c1)[C@]1(C(=O)N2)[C@H](C(N)=O)[C@H]2C(=O)O[C@H](c3ccccc3)[C@H](c3ccccc3)N2[C@@H]1c1ccc(O)cc1)C(=O)OC (Torsin-1A-interacting protein 1 (Homo sapiens)).
0.659

Give measured composite z-score for CC(C)(C)OC(=O)CC[C@@]1(C(=O)NCc2ccccc2)N=C(c2ccc(OCCCO)cc2)O[C@@H]1c1ccccc1CN=[N+]=[N-] (Torsin-1A-interacting protein 1 (Homo sapiens)).
0.487

----------
procedureSummary: A549 cell cytotoxicity, cytotoxicity control, plate reader, single point, cherry-pick (AID 743188)
conditionDescription: at 25 µM
Some of the results follow. Calls of active or inactive are those of the source. How the calls were made is not given here.
cell viability change % (negative = cytotoxic) by entry:

Recorded results for 2 compounds are shown here.
compound	observedResult
O=C(c1cc(-c2ccc(Cl)cc2)on1)N1CCN(c2ccccc2)CC1	-16.6% (inactive)
CC(Cc1cccs1)NC(=O)c1cccc(Cl)c1 (configuration not stated)	-16% (inactive)

Look up and state reported cell viability change % (negative = cytotoxic) for COc1ccc(Nc2ccc3ccccc3c2)cc1
-5.46% (inactive)

Look up and state reported cell viability change % (negative = cytotoxic) for COc1cc2ccccc2cc1C(=O)Nc1ccncc1
-3.23% (inactive)

Look up and state reported cell viability change % (negative = cytotoxic) for Cc1ccc(-c2nc(COC(=O)c3c(C)noc3C)cs2)cc1
-1.11% (inactive)

Look up and state reported cell viability change % (negative = cytotoxic) for COC(=O)/C(=C1\Oc2ccc(C(C)(C)C)cc2S1)C(F)(F)F
-9.79% (inactive)

----------
composite z-score by entry:
system: Epidermal growth factor receptor (Homo sapiens)
procedureSummary: EGFR binders on small-molecule microarrays, primary screen, biochemical, small-molecule microarray, 635 nm fluorescence (AID 1104);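 further: score merges 667 nm emission intensity with spot signal to noise over triplicate slides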
conditionDescription: EGFR binding, higher = more signal

compound	composite z-score
CC(C)C(=C=CC[C@@H](O)c1ccc(CO)o1)CCO	-0.171

Look up and state reported composite z-score for O=C(NCC(F)(F)F)[C@@H]1c2ccccc2C(=O)N(C2Cc3ccccc3C2)[C@H]1c1ccc(CO)cc1
-0.621

Look up and state reported composite z-score for C=CCNC(=O)[C@H]1[C@@H]2C(=O)O[C@@H](c3ccccc3)[C@@H](c3ccccc3)N2[C@@H](c2ccccc2OCCO)[C@]12C(=O)N(C(=O)OCCOC)c1ccc(C#CCCO)cc12
0.843

Look up and state reported composite z-score for CC(C)NC(=O)[C@@H]1c2ccccc2C(=O)N(Cc2cc(F)cc(C(F)(F)F)c2)[C@H]1c1ccc(CO)cc1
-0.979

Look up and state reported composite z-score for COCCOC(=O)N1C(=O)[C@@]2(c3cc(C#CC4(O)CCCCCC4)ccc31)[C@H](c1ccccc1OCCO)N1[C@H](c3ccccc3)[C@H](c3ccccc3)OC(=O)[C@H]1[C@@H]2C(=O)Nc1nc2ccccc2s1
0.45

Look up and state reported composite z-score for O=C1c2ccccc2C(=O)c2cc([C@H]3Oc4ccccc4S(=O)(=O)N4CCC[C@@H]34)ccc21
-0.727

Look up and state reported composite z-score for CCCCC(=C=CC[C@@H](O)c1ccc(OCCO)cc1)C[C@@H](O)c1cc(Cl)cc(Cl)c1O
-0.723

Look up and state reported composite z-score for COc1ccc(CCNC(=O)[C@@]2(Sc3ccc(C)cc3)CC(=O)N(Cc3ccccc3)[C@@H]2c2ccc(CO)cc2I)cc1
-0.46

Look up and state reported composite z-score for CN(C)CCCC[C@@H]1NC(=O)[C@@H]2C[C@H](C(=O)NCCCCCNC(=O)CS)[C@H](c3cccc(OCCO)c3)N2C1=O
0.35

Look up and state reported composite z-score for COC(=O)c1c(CC[C@@H](CO)NC(=O)Nc2ccc(OC)cc2)oc(C(=O)Cc2ccccc2)c1C(=O)OC
0.0445
